# Tested on: 454973-116-R2-J3-PDC spheroids, viability, % test/control
# assay-info: Anticancer human tumor 454973-116-R2-J3-PDC patient-derived pancreatic carcinoma cell line growth inhibition [GQUAD]
# experimental-parameters: curve of first compound; second compound 0.316 µM; spheroids with HUVEC and MSC
result-type: pIC50
Just so you know, pIC50 here is -log10 of the concentration in molar units; reply with that number alone.

Some compounds with known pIC50 results, for comparison:
{"compound": "COc1cccc2c1C(=O)c1c(O)c3c(c(O)c1C2=O)CC(O)(C(=O)CO)CC3OC1CC(N)C(O)C(C)O1 (stereo not given) + Cc1cnc(CNC(=O)c2c(=O)c3ccc(N4CCCN(C)CC4)nc3n3c2sc2ccccc23)cn1", "pIC50": 6.38}
{"compound": "COc1cc(C2c3cc4c(cc3C(OC3OC5COC(C)OC5C(O)C3O)C3COC(=O)C23)OCO4)cc(OC)c1O (stereo not given) + Cc1cnc(CNC(=O)c2c(=O)c3ccc(N4CCCN(C)CC4)nc3n3c2sc2ccccc23)cn1", "pIC50": 6.33}
{"compound": "CCc1c2c(nc3ccc(O)cc13)-c1cc3c(c(=O)n1C2)COC(=O)[C@]3(O)CC + Cc1[nH]c2ccc(F)cc2c1-c1nc2c3cccnc3c3ncccc3c2[nH]1", "pIC50": 8.78}
{"compound": "C=CCn1c(=O)c2cnc(Nc3ccc(N4CCN(C)CC4)cc3)nc2n1-c1cccc(C(C)(C)O)n1 + Cc1cnc(CNC(=O)c2c(=O)c3ccc(N4CCCN(C)CC4)nc3n3c2sc2ccccc23)cn1", "pIC50": 6.96}
{"compound": "CC1COCCN1c1cc(C2(S(C)(=N)=O)CC2)nc(-c2ccnc3[nH]ccc23)n1 (stereo not given) + Cc1cnc(CNC(=O)c2c(=O)c3ccc(N4CCCN(C)CC4)nc3n3c2sc2ccccc23)cn1", "pIC50": 6.02}
{"compound": "Cc1[nH]c2ccccc2c1CCNCc1ccc(/C=C/C(=O)NO)cc1 + CN(C)c1ccc(Nc2c3ccc(NC(=O)CCN4CCCC4)cc3nc3cc(NC(=O)CCN4CCCC4)ccc23)cc1", "pIC50": 7.25}
{"compound": "CC(C)(O)C1CCC(Nc2ccc3ncc(-c4cccc(C(F)(F)F)c4)n3n2)CC1 (stereo not given) + CN(C)c1ccc(Nc2c3ccc(NC(=O)CCN4CCCC4)cc3nc3cc(NC(=O)CCN4CCCC4)ccc23)cc1", "pIC50": 5.81}
{"compound": "COc1cccc2c1C(=O)c1c(O)c3c(c(O)c1C2=O)CC(O)(C(=O)CO)CC3OC1CC(N)C(O)C(C)O1 (stereo not given) + Cc1[nH]c2ccc(F)cc2c1-c1nc2c3cccnc3c3ncccc3c2[nH]1", "pIC50": 6.81}
{"compound": "O=C(NO)c1cnc(N2CCN(S(=O)(=O)c3ccc4ccccc4c3)CC2)nc1 + Cc1[nH]c2ccc(F)cc2c1-c1nc2c3cccnc3c3ncccc3c2[nH]1", "pIC50": 6.42}

Continue with the next compound.
Problem: Can you share its pIC50? I mean this compound: C#Cc1c(F)ccc2cc(O)cc(-c3ncc4c(N5CC6CCC(C5)N6)nc(OCC56CCCN5CC(F)C6)nc4c3F)c12 (stereo not given) + CN(C)c1ccc(Nc2c3ccc(NC(=O)CCN4CCCC4)cc3nc3cc(NC(=O)CCN4CCCC4)ccc23)cc1
Result: 7.50

----------
# System: 454973-116-R2-J3-PDC spheroids, viability, % test/control
# assay-info: Anticancer human tumor 454973-116-R2-J3-PDC cell line growth inhibition [GQUAD]; active = viability on the fitted dose curve at most 10% of control; inactive = the rest;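 also: spheroids exposed to compounds for seven days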
# experimental-parameters: second compound 10 µM; first compound 1 µM; spheroids with HUVEC and MSC
The categories you may choose from are t = active, f = inactive

Answered examples (2):
{"compound": "CC1COCCN1c1cc(C2(O)CC3CCC(C2)O3)c2cnn(-c3ccn[nH]3)c2n1 (stereo not drawn) + Cc1cnc(CNC(=O)c2c(=O)c3ccc(N4CCCN(C)CC4)nc3n3c2sc2ccccc23)cn1", "qualitative-label": "t"}
{"compound": "COc1cc(C2c3cc4c(cc3C(OC3OC5COC(C)OC5C(O)C3O)C3COC(=O)C23)OCO4)cc(OC)c1O (stereo not drawn) + Cc1cnc(CNC(=O)c2c(=O)c3ccc(N4CCCN(C)CC4)nc3n3c2sc2ccccc23)cn1", "qualitative-label": "f"}

We next turn to a different compound, shown below.
Problem: Tell me the recorded outcome of this test for Cc1cccc(N(C)C(=O)C2C(O)CCN2c2nc(C)cc(C(F)(F)F)c2C#N)c1 (stereo not drawn) + CN(C)c1ccc(Nc2c3ccc(NC(=O)CCN4CCCC4)cc3nc3cc(NC(=O)CCN4CCCC4)ccc23)cc1 .
Result: f

----------
# Tested on: 454973-116-R2-J3-PDC spheroids, viability, % test/control
# assay-info: Anticancer human tumor 454973-116-R2-J3-PDC cell line growth inhibition [GQUAD];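 also: spheroids exposed to compounds for seven days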;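 as to viability, T/C: 100% = DMSO vehicle control viability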
# experimental-parameters: second compound 0.0316 µM; first compound 1 µM; stronger effect = lower value; spheroids with HUVEC and MSC
// reported viability, T/C for each item listed
Lab book: enter the figure in %, no units written.

Below are worked cases with known answers.
{"compound": "C=CCn1c(=O)c2cnc(Nc3ccc(N4CCN(C)CC4)cc3)nc2n1-c1cccc(C(C)(C)O)n1 + Cc1cnc(CNC(=O)c2c(=O)c3ccc(N4CCCN(C)CC4)nc3n3c2sc2ccccc23)cn1", "units-label": "%", "viability, T/C": 11.7}
{"compound": "CC1COCCN1c1cc(-c2ccnn2C)c2ccnc(-c3ccn[nH]3)c2n1 (stereo unspecified) + CN(C)c1ccc(Nc2c3ccc(NC(=O)CCN4CCCC4)cc3nc3cc(NC(=O)CCN4CCCC4)ccc23)cc1", "units-label": "%", "viability, T/C": 23}
{"compound": "CC1COCCN1c1cc(C2(S(C)(=N)=O)CC2)nc(-c2ccnc3[nH]ccc23)n1 (stereo unspecified) + Cc1[nH]c2ccc(F)cc2c1-c1nc2c3cccnc3c3ncccc3c2[nH]1", "units-label": "%", "viability, T/C": 96.5}
{"compound": "Nc1ccn(C2OC(CO)C(O)C2(F)F)c(=O)n1 (stereo unspecified) + Cc1[nH]c2ccc(F)cc2c1-c1nc2c3cccnc3c3ncccc3c2[nH]1", "units-label": "%", "viability, T/C": 17.2}
{"compound": "CCCS(=O)(=O)Nc1ccc(F)c(C(=O)c2c[nH]c3ncc(-c4ccc(Cl)cc4)cc23)c1F + Cc1[nH]c2ccc(F)cc2c1-c1nc2c3cccnc3c3ncccc3c2[nH]1", "units-label": "%", "viability, T/C": 116}

// next item, viability, T/C requested
Problem: Given the entry O=c1[nH]cc(F)c(=O)[nH]1 + CN(C)c1ccc(Nc2c3ccc(NC(=O)CCN4CCCC4)cc3nc3cc(NC(=O)CCN4CCCC4)ccc23)cc1 , report its measured viability, T/C.
Result: 84.2

----------
# System: 454973-116-R2-J3-PDC spheroids, viability, % test/control
# assay-info: Anticancer human tumor 454973-116-R2-J3-PDC cell line growth inhibition [GQUAD];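 also: spheroids exposed to compounds for seven days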;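 as to viability, T/C: 100% = DMSO vehicle control viability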
# experimental-parameters: second compound 0.316 µM; first compound 1 µM; stronger effect = lower value; spheroids with HUVEC and MSC
viability, T/C listing for selected compounds.

{"compound": "COc1ncnc(C2CC2)c1-c1ncc2cnn(Cc3ccc(-c4nc(C(F)(F)F)cn4C(C)C)cc3)c2n1 + CN(C)c1ccc(Nc2c3ccc(NC(=O)CCN4CCCC4)cc3nc3cc(NC(=O)CCN4CCCC4)ccc23)cc1", "test-value": "101%"}

Problem: Give its viability, T/C value. Item: C=CCn1c(=O)c2cnc(Nc3ccc(N4CCN(C)CC4)cc3)nc2n1-c1cccc(C(C)(C)O)n1 + Cc1[nH]c2ccc(F)cc2c1-c1nc2c3cccnc3c3ncccc3c2[nH]1
Result: 16.7%

Problem: May I ask what viability, T/C has been recorded for Nc1ccn(C2OC(CO)C(O)C2(F)F)c(=O)n1 (stereo unspecified) + Cc1[nH]c2ccc(F)cc2c1-c1nc2c3cccnc3c3ncccc3c2[nH]1 ?
Result: 14.5%

----------
# Test system: 454973-116-R2-J3-PDC spheroids, viability, % test/control
# assay-info: Anticancer human tumor 454973-116-R2-J3-PDC cell line growth inhibition [GQUAD];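 also: spheroids exposed to compounds for seven days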;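 as to viability, T/C: 100% = DMSO vehicle control viability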
# experimental-parameters: second compound 10 µM; first compound 0.1 µM; stronger effect = lower value; spheroids with HUVEC and MSC
// returns F unless viability, T/C is strictly below 50%, in which case T

{"compound": "CC(=O)O[C@H]1C(=O)[C@@]2(C)[C@H]([C@H](OC(=O)c3ccccc3)[C@]3(O)C[C@H](OC(=O)[C@H](O)[C@@H](NC(=O)c4ccccc4)c4ccccc4)C(C)=C1C3(C)C)[C@]1(OC(C)=O)CO[C@@H]1C[C@@H]2O + Cc1[nH]c2ccc(F)cc2c1-c1nc2c3cccnc3c3ncccc3c2[nH]1", "target-of-assay": "454973-116-R2-J3-PDC spheroids, viability, % test/control", "qualitative-label": "T"}

Problem: Could you please tell me whether viability, T/C recorded for CC1COCCN1c1cc(-c2ccnn2C)c2ccnc(-c3ccn[nH]3)c2n1 (stereo not given) + Cc1[nH]c2ccc(F)cc2c1-c1nc2c3cccnc3c3ncccc3c2[nH]1 is less than 50%?
Result: F

Problem: Decide: viability, T/C of CC1COCCN1c1cc(-c2ccnn2C)c2ccnc(-c3ccn[nH]3)c2n1 (stereo not given) + CN(C)c1ccc(Nc2c3ccc(NC(=O)CCN4CCCC4)cc3nc3cc(NC(=O)CCN4CCCC4)ccc23)cc1 strictly below 50%?
Result: T
